Target: T1, Mcl-1, Q07820
T1 chain: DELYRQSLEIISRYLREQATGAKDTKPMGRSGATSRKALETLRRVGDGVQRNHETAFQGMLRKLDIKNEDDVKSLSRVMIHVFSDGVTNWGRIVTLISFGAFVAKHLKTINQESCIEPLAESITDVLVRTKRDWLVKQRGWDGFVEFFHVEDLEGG
Test: peptide SPOT array, c-Myc-tagged receptor at 1 uM or 100 nM, anti-c-Myc-Cy3
measure: SPOT signal as a fraction of Bim BH3's signal on the same receptor and array

Find the recorded SPOT signal as a fraction of Bim BH3's signal on the same receptor and array belonging to ELQAPATVQSDGLLGDRLCVGAAGGF [CDC42BPG] and report it.
0.01

Find the recorded SPOT signal as a fraction of Bim BH3's signal on the same receptor and array belonging to MSLFLRVVFSFTMFLDLFEEEYSTVS [USP40] and report it.
0.06

Find the recorded SPOT signal as a fraction of Bim BH3's signal on the same receptor and array belonging to GTAVAYRGAHLRGRGRAVYNTFRAAP [XXXX] and report it.
1.6

Find the recorded SPOT signal as a fraction of Bim BH3's signal on the same receptor and array belonging to FGDEGAVIEVLHRGSADLNARNKRRQ [MIB1] and report it.
0.05

Find the recorded SPOT signal as a fraction of Bim BH3's signal on the same receptor and array belonging to NGGLLEFHKSLQEIGDKNDHWFDIDP [DZIP3] and report it.
0.04

[a] QQMHHNAATAMAQRLDMLRGLSPRES [NCOR2]
[b] PKPDSDVTQTINTVAYHARPDSDQRF [BARD1]
Select one: a or b . Criterion: greater recorded SPOT signal as a fraction of Bim BH3's signal on the same receptor and array. // respond with label for picked entry
a
(a: 0.08, b: 0.01)

[1] SHFVACMTAIDNQMGDQHYSFYIETF
[2] HPEHFVCAFCLTQLSKGIFREQNDKT [LPXN]
Returns: the label, 1 or 2 , whose recorded SPOT signal as a fraction of Bim BH3's signal on the same receptor and array is the lower number. // respond with label for picked entry
2
(2: 0.03, 1: 0.05)

[a] AELRLFLAQRLRWLCDSCPASRATCV
[b] LALLAQPSHLMRQVLRSVFGHICSHL [MYBBP1A]
Returns: the label, a or b , whose recorded SPOT signal as a fraction of Bim BH3's signal on the same receptor and array is the lower number. // respond with label for picked entry
b

The origin of these recorded values is paper PMC4072508.
